study_target: full-length beta-Catenin (Uniprot ID P35222) (Homo sapiens (Human)) (UniProt P35222)
Sequence (P35222 whole entry): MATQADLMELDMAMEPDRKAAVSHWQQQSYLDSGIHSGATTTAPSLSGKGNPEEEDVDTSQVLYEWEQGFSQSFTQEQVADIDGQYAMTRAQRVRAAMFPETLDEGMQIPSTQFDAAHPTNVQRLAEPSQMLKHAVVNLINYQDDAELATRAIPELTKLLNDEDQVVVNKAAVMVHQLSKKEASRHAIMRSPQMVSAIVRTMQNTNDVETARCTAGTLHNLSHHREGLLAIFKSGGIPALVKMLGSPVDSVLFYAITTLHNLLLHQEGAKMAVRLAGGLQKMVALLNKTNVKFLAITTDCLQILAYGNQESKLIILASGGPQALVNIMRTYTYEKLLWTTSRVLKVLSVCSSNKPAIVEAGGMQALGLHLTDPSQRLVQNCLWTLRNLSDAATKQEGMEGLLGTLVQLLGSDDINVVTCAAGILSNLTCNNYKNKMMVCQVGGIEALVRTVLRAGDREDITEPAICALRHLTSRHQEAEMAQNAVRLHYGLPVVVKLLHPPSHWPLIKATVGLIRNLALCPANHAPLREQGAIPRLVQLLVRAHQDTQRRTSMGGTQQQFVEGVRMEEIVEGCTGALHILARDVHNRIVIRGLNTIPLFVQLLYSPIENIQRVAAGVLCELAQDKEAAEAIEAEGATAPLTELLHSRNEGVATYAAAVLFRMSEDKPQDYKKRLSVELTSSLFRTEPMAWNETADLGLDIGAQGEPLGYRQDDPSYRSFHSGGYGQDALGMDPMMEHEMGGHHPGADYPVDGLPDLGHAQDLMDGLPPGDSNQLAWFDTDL
assay_notes: fluorescence polarization competition; 10 nM full-length beta-catenin, 10 nM 5FAM-TCF4(10-53) probe
Starred links: 1 amine or outer side, 2 acyl side, 3 side chain; linkers in the order of their positions; H or OH if unused. Positions of bridges follow the written chain, without caps; N, C: chain ends. Non-standard residues stand in square brackets, D forms with d. Primed or numbered codes have the meaning given here. PyrS2″ = (S)-3-amino-1-((pent-4-en-1-yloxy)carbonyl)pyrrolidine-3-carboxylic acid (stapling residue), C=CCCCOC(=O)N1CC[C@@](N[*:1])(C(=O)[*:2])C1; B5(4) = 2,2-bis(4-pentenyl)glycine = 2-amino-2-(pent-4-en-1-yl)hept-6-enoic acid (stitching residue), C=CCCCC(CCCC=C)(N[*:1])C(=O)[*:2]; (NMe2)GlnR(3) = [NMe2]GlnR, N5,N5-dimethyl-L-glutamine, CN(C)C(=O)CC[C@H](N[*:1])C(=O)[*:2]; Me2Asn = listed as N4-methyl-L-asparagine, CNC(=O)C[C@H](N[*:1])C(=O)[*:2]; Phe(3-COOH) = N[C@@H](Cc1cccc(C(=O)O)c1)C(=O)O; Phe(2-CF3) = N[C@@H](Cc1ccccc1C(F)(F)F)C(=O)O; Bta = N[C@@H](Cc1csc2ccccc12)C(=O)O; αAllylPro = C=CC[C@@]1(C(=O)O)CCCN1; tBuAla = CC(C)(C)C[C@H](N)C(=O)O; 3Thi = N[C@@H](Cc1ccsc1)C(=O)O; 34ClF = not defined here; Nle = CCCC[C@H](N)C(=O)O; Aib = CC(C)(N)C(=O)O
readout: IC50 (nM)

[
  {
    "binder": "Ac-[αAllylPro]D[tBuAla][B5(4)]D[Phe(3-COOH)][Aib]AFL[PyrS2″][3Thi][Bta][tBuAla]-NH2 (staple 1-4, 4-11) [I-2194]",
    "quantity_unit": "nM",
    "IC50": 91
  }
]

[1] Ac-[αAllylPro]D[tBuAla][B5(4)]DDAAFN[PyrS2″][3Thi][34ClF]Q-NH2 (staple 1-4, 4-11; reading uncertain; also: printed as Ac-PL3-Asp-Npg-B5-Asp-Asp-Ala-Ala-Phe-Asn-PyrS2-3Thi-34C1F-Gln-NH2) [I-2182]
[2] Ac-[αAllylPro]D[tBuAla][B5(4)]D[Phe(3-COOH)][Aib]AF[Nle][PyrS2″][3Thi][Bta][(NMe2)GlnR(3)]-NH2 (staple 1-4, 4-11) [I-2551]
[3] Ac-[αAllylPro]D[tBuAla][B5(4)]D[Phe(3-COOH)][Me2Asn]AFL[PyrS2″][3Thi][Bta]V-NH2 (staple 1-4, 4-11) [I-2191]
[4] Ac-[αAllylPro]D[tBuAla][B5(4)]D[Phe(3-COOH)]AAFF[PyrS2″][Phe(2-CF3)][Bta][MorphGln]-NH2 (staple 1-4, 4-11) [I-2543]
Exam item: Please list these binders in decreasing order of IC50. Please list the labels according to the requested order.
Marked response: 4, 3, 2, 1
